Origin of the recorded values: the supplement of paper PMC9112550

Test system: Escherichia coli TOP10;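 further: peptides expressed intracellularly from a pBAD plasmid library in pooled LB shake-flask culture, induced with 0.3% L-arabinose, DNA abundance read by NGS, three biological replicates, DESeq2 with apeglm shrinkage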
PROTOCOL_NOTES: shrunken log2 fold change of peptide-encoding DNA abundance (4.5 h post-induction vs induction); higher = less antimicrobial activity (less host growth inhibition)
COND: time post-induction: 4.5 h; library: site-saturation at positions 5, 18, 19, 20
ATTRIBUTE_MEASURED: shrunken log2 fold change

[[record]]
residue_string = "RRIRKRPPRLPRPRPRPELEPRP"
measured = 0.0875

[[record]]
residue_string = "RRIRYRPPRLPRPRPRPHQYPRP"
measured = -0.402

[[record]]
residue_string = "RRIRDRPPRLPRPRPRPCTWPRP"
measured = 0.0101

[[record]]
residue_string = "RRIRVRPPRLPRPRPRPRLKPRP"
measured = 3.13

[[record]]
residue_string = "RRIRLRPPRLPRPRPRPHNLPRP"
measured = -0.11

[[record]]
residue_string = "RRIRLRPPRLPRPRPRPSSDPRP"
measured = 0.128


[ask] Provide one value: measured shrunken log2 fold change of RRIRLRPPRLPRPRPRPYSVPRP
[reply] 0.0375

[ask] Provide one value: measured shrunken log2 fold change of RRIRRRPPRLPRPRPRPCPWPRP
[reply] -0.0433

[ask] Provide one value: measured shrunken log2 fold change of RRIRVRPPRLPRPRPRPEQDPRP
[reply] 0.173

[ask] Provide one value: measured shrunken log2 fold change of RRIRWRPPRLPRPRPRPPFQPRP
[reply] 0.248

[ask] Provide one value: measured shrunken log2 fold change of RRIRVRPPRLPRPRPRPVGIPRP
[reply] -0.0251
